Taken from a melting point compilation (Tetko et al.; mined from patent text by program, amines drawn as free bases though some values may be those of a salt).

Assay Metric: melting point

                                   compound  experimental_value
0  Cc1cc2ccccn2c1C(=O)c1ccc([N+](=O)[O-])cc1              149 °C
1  COc1ccc(-c2nc([N+](=O)[O-])n(C(=O)c3ccccc3)c2-c2ccc(OC)cc2)cc1       161 to 163 °C

Batch of 3 compounds: report melting point for each.
1. CN(C)C1CCc2oc3ccc(NC(=O)c4ccncc4)cc3c2C1 (centres undefined)
2. CN(Cc1cc2c(=O)c(C(=O)NCc3ccc(Cl)cc3)cn(C)c2o1)CC(O)c1cccs1 (centres undefined)
3. CCC[C@H](NC(=O)/C=C/S(=O)(=O)c1ccccc1)C(=S)OC

[reply]
1: 146 to 147 °C; 2: 145 to 147 °C; 3: 131 to 132 °C

Batch of 4 compounds: report melting point for each.
1. CSc1ccc(C(C)C)c(NC(=O)CN2CCN(CCCSc3nc4ccccc4o3)CC2)c1C(C)C
2. O=C(CC1CCOC1=O)c1ccccc1 (centres undefined)
3. Cc1ccnc(N)c1C
4. O=[N+]([O-])c1ccc(-c2ccc(-c3ccc([N+](=O)[O-])cc3OCc3ccccc3)o2)c(OCc2ccccc2)c1

[reply]
1: 126 to 127 °C; 2: 77 to 79 °C; 3: 79.5 to 81 °C; 4: 233 to 237 °C

====

Give melting point for every item shown.

Recorded results for 5 compounds are shown here.
In [3]: df
Out[3]:
                                   compound   assay_metric  experimental_value
0               Cc1cccc(SCn2cc(Cl)cnc2=O)c1  melting point              134 °C
1  COc1cc2c(cc1O[Si](C)(C)C(C)(C)C)CN(C(=O)OC(C)(C)C)CC2  melting point         46 to 49 °C
2  Cc1nc(Cc2ccc(NC(=O)/C=C/c3cnn(C)c3-c3ccc(F)cc3)cc2)no1  melting point       183 to 184 °C
3  C[C@H]1CCCN(C(=O)[C@@H]2Cc3ccccc3N2c2ccc3nncn3n2)C1  melting point            > 300 °C
4  COC(=O)C(C#N)C(=O)Nc1ccc(C(F)(F)F)cc1 (centres undefined)  melting point       186 to 189 °C

Batch of 3 compounds: report melting point for each.
1. CCOC(=O)c1cnc2c(-c3ccc(Cc4cccc(OC)c4)cc3)cnn2c1O
2. COc1ccc(OCCC2CCN(c3cc(Cl)nnc3Cl)CC2)cc1
3. N#Cc1cccc(NC(=O)NC2N=C(c3ccccc3F)c3ccccc3N(CC(=O)N3CC4CCC(CC4)C3)C2=O)c1 (racemic)

[reply]
1. 236 to 240 °C
2. 119 to 120 °C
3. 188 to 195 °C

[ask] Returns the measured melting point for the input compound. Input: Cn1nc(N)nc1NCCCOc1cccc(CN2CCCC2)c1
[reply] 95 to 95.5 °C

====

Assay Metric: melting point

                                   molecule  experimental_value
0  Cc1ccc(S(=O)(=O)NC(Cc2ccccc2)C(=O)O)cc1 (centres undefined)       134 to 135 °C

Batch of 4 molecules: report melting point for each.
1. O=C(Oc1cccc(OC(=O)c2cc(O)c(O)c(O)c2)c1)c1cc(O)c(O)c(O)c1
2. CC(C)(C)[Si](C)(C)Oc1ccccc1-c1cc(-c2cccc([N+](=O)[O-])c2)c(C#N)c(NC(=O)c2ccsc2)n1
3. N#Cc1ccc(C2=Nc3ccc(-c4ccccc4F)cc3NC(=O)C2)s1
4. CCOC(=O)CNCP(=O)(O)O

[reply]
1. 194 to 195 °C
2. 139 to 142 °C
3. > 250 °C
4. > 220 °C

Batch of 4 molecules: report melting point for each.
1. CC(=O)OC1CSC(Oc2cccc(-c3cn(C)nc3C(F)(F)F)c2)C(OC(C)=O)C1OC(C)=O (centres undefined)
2. CN(C)CCCNC(=O)c1ccccc1-c1cc2cc(Cl)c(Cl)cc2[nH]1
3. CCOC(C)=C(C#N)C(=O)c1ccc(F)cc1
4. COc1cn(-c2ccc(-n3nccc3OC(F)F)cc2F)nc(-c2ccnn2-c2ccccc2)c1=O

[reply]
131 to 133 °C
169 °C
77 °C
177 to 179 °C
